# Tested on: SW-620 colon
# ASSAY_NOTES: NCI-60 one-dose screen, 48 h
# ASSAY_CONTEXT: 10 µM unless noted
# Method: Growth inhibition of the SW-620 human tumor cell line is measured as a screen for anti-cancer activity. Cells are grown in 96 well plates and exposed to the test compound for 48 hours. Compounds are tested at a single concentration, which is 10^-5 M for most compounds. The reported endpoint is percent growth (GI% or GIPRCNT), where numbers from 0 - 100% represent growth inhibition, and numbers from -100% - 0 represent cell death. For example, a value of 40 represents 60% growth inhibition. […]
Compounds without any hit were thinned out: in the full panel of roughly 83,000, 20% have a hit. Activity calls are given as the source filed them. Rule for the calls: active = growth percent below 10; inactive = the rest.
Give one outcome, nothing more. List: 1 (active), -1 (inactive)

*Q* # outcome recorded in this test, key = C=CCCC(=O)N1C=CC(=O)[C@H](O)[C@@H]1/C=C/c1ccccc1
*A* -1

*Q* # outcome recorded in this test, key = Cc1ccc(C)c(-n2c(-c3ccc(Br)cc3)csc2=NC(=O)c2ccccc2F)c1
*A* -1

*Q* # outcome recorded in this test, key = CCCCCCCCn1ccc2cc(NC(=O)Cn3cc(CN4CCN(CC)CC4)nn3)ccc21
*A* 1

*Q* # outcome recorded in this test, key = CCCCCCCC/C=C\CCCCCCCCOc1ccccc1CC(=O)NCC[N+]1(C)CCCCC1
*A* -1

*Q* # outcome recorded in this test, key = c1ccc(CNc2ccc3nc(CCC4CCCCC4)[nH]c3c2)cc1
*A* -1
